test: Far UV circular dichroism of peptides in buffer (MRE, α-helix percentage); format: physicochemical; details: Mean Residue Ellipticity at 222 nm, peptide in buffer, far UV CD
Label condition met when [q]222 nm Buffer (Chen 74) is at or above -3000; otherwise label condition not met.

[[record]]
monomer_sequence = "GLWSTIKQKGKE [DS 01 (1–12), fragment 1–12 of DS 01, Phyllomedusa oreades, reference compound]"
cat = "condition met"

[[record]]
monomer_sequence = "KAGLQFPVGRIARFLK [B4FGE3(22–37), putative IAP; fragment of Histone H2A, Zea mays]"
cat = "condition met"

[[record]]
monomer_sequence = "GLWQIFSSKEEGKDNSQQKSKGDQAKEL [gb|ACU24018.1|(73–101), putative IAP; fragment of Unknown protein, Glycine max]"
cat = "condition met"


Could you tell me if the measured [q]222 nm Buffer (Chen 74) of FVTNSKRLAEGIEKGVGNSILIKVN [Q8KG25(327–351), putative IAP; fragment of Enolase 2, Chlorobium tepidum] reaches -3000 or more?
condition not met

Could you tell me if the measured [q]222 nm Buffer (Chen 74) of KLKKLLAGQKDGLLGQIAAMSDLYTKK [P94692(929–955), putative IAP; fragment of Pyruvate-ferredoxin oxidoreductase, Desulfovibrio africanus] reaches -3000 or more?
condition met

Could you tell me if the measured [q]222 nm Buffer (Chen 74) of FKALRALRLEDLRIPTSYIK [A3KLW0(117–136), putative IAP; fragment of Rubisco large chain, Anisophyllea pomifera] reaches -3000 or more?
condition not met

Could you tell me if the measured [q]222 nm Buffer (Chen 74) of IAAAQRITSGAADIAINWAGGLHHAKK [B0CZJ3(104–130), putative IAP; fragment of Histone deacetylase complex, Laccaria bicolor] reaches -3000 or more?
condition not met

Could you tell me if the measured [q]222 nm Buffer (Chen 74) of GHRGALKDWVQAAGGAVAAFDFTTKG [Q8RW88(70–95), putative IAP; fragment of Alpha-amylase, Citrus reticulata] reaches -3000 or more?
condition not met

====

experiment: Far UV circular dichroism of peptides in buffer (MRE, α-helix percentage); type: physicochemical; settings: buffer; from [q]208 nm, methodology of Greenfield et al. 1969
observable: % Helicity (Buffer) (Greenfield 69) (%)
Give your result in % as a bare value.

Guide cases for % Helicity (Buffer) (Greenfield 69), answers given:
[[record]]
monomer_sequence = "GLWSTIKQKGKE [DS 01 (1–12), fragment 1–12 of DS 01, Phyllomedusa oreades, reference compound]"
observable = "% Helicity (Buffer) (Greenfield 69)"
value = 17.8

[[record]]
monomer_sequence = "SLWKNLSRKISGAVKAQPDLHTLLPLPGS [Q9XEY7(120–148), putative IAP; fragment of Trehalase 1 GMTRE1, Glycine max]"
observable = "% Helicity (Buffer) (Greenfield 69)"
value = 25.4

[[record]]
monomer_sequence = "IAAAQRITSGAADIAINWAGGLHHAKK [B0CZJ3(104–130), putative IAP; fragment of Histone deacetylase complex, Laccaria bicolor]"
observable = "% Helicity (Buffer) (Greenfield 69)"
value = 47.7

[[record]]
monomer_sequence = "KLKKLLAGQKDGLLGQIAAMSDLYTKK [P94692(929–955), putative IAP; fragment of Pyruvate-ferredoxin oxidoreductase, Desulfovibrio africanus]"
observable = "% Helicity (Buffer) (Greenfield 69)"
value = 8.6

[[record]]
monomer_sequence = "FVTNSKRLAEGIEKGVGNSILIKVN [Q8KG25(327–351), putative IAP; fragment of Enolase 2, Chlorobium tepidum]"
observable = "% Helicity (Buffer) (Greenfield 69)"
value = 13.3


Now, please, on to the next sequence.
% Helicity (Buffer) (Greenfield 69) for GHRGALKDWVQAAGGAVAAFDFTTKG [Q8RW88(70–95), putative IAP; fragment of Alpha-amylase, Citrus reticulata] is 0.0168

====

Assay: Far UV circular dichroism of peptides in buffer (MRE, α-helix percentage)
Type: physicochemical
Settings: buffer; from [q]222 nm, methodology of Chen et al. 1974
Procedure: Far UV CD spectra were acquired for peptides at 20 µM in buffer and in the presence of DMPC or 2∶1 DMPC:DMPG LUVs at 1 mol% peptide/phospholipids. Peptides presented different degrees of secondary structures upon LUVs addition. […] Experiments were conducted on a Jasco-J810 spectropolarimeter (Jasco International Co., Japan). Spectra were acquired at room temperature from 194 to 260 nm as an average of 4 readings using a 0.1 cm path length cell, data pitch of 0.2 nm and a response time of 0.5 s. […]
Please assign not met whenever % Helicity (Buffer) (Chen 74) is at or above 8%, and met whenever it is below.

Recorded results for 3 sequences are shown here.
[[record]]
monomer_sequence = "FKALRALRLEDLRIPTSYIK [A3KLW0(117–136), putative IAP; fragment of Rubisco large chain, Anisophyllea pomifera]"
cat = "not met"

[[record]]
monomer_sequence = "SLWKNLSRKISGAVKAQPDLHTLLPLPGS [Q9XEY7(120–148), putative IAP; fragment of Trehalase 1 GMTRE1, Glycine max]"
cat = "not met"

[[record]]
monomer_sequence = "GLWSTIKQKGKE [DS 01 (1–12), fragment 1–12 of DS 01, Phyllomedusa oreades, reference compound]"
cat = "met"


Record GLWQIFSSKEEGKDNSQQKSKGDQAKEL [gb|ACU24018.1|(73–101), putative IAP; fragment of Unknown protein, Glycine max] : is its % Helicity (Buffer) (Chen 74) strictly below 8%?
met

Record KAGLQFPVGRIARFLK [B4FGE3(22–37), putative IAP; fragment of Histone H2A, Zea mays] : is its % Helicity (Buffer) (Chen 74) strictly below 8%?
met

Record FVTNSKRLAEGIEKGVGNSILIKVN [Q8KG25(327–351), putative IAP; fragment of Enolase 2, Chlorobium tepidum] : is its % Helicity (Buffer) (Chen 74) strictly below 8%?
not met

Record GHRGALKDWVQAAGGAVAAFDFTTKG [Q8RW88(70–95), putative IAP; fragment of Alpha-amylase, Citrus reticulata] : is its % Helicity (Buffer) (Chen 74) strictly below 8%?
not met

Record KLKKLLAGQKDGLLGQIAAMSDLYTKK [P94692(929–955), putative IAP; fragment of Pyruvate-ferredoxin oxidoreductase, Desulfovibrio africanus] : is its % Helicity (Buffer) (Chen 74) strictly below 8%?
met

Record IAAAQRITSGAADIAINWAGGLHHAKK [B0CZJ3(104–130), putative IAP; fragment of Histone deacetylase complex, Laccaria bicolor] : is its % Helicity (Buffer) (Chen 74) strictly below 8%?
not met

====

This listing pairs sequences with measured 1/(log(MICs (mM)), Xanthomonas axonopodis pv. glycines).
tested on: Xanthomonas axonopodis pv. glycines; conditions: from MIC; 0 where no detectable activity
Enter a number only.

Guide cases for 1/(log(MICs (mM)), Xanthomonas axonopodis pv. glycines), answers given:
[[record]]
monomer_sequence = "FKALRALRLEDLRIPTSYIK [A3KLW0(117–136)]"
value = 0

[[record]]
monomer_sequence = "IAAAQRITSGAADIAINWAGGLHHAKK [B0CZJ3(104–130)]"
value = 0

[[record]]
monomer_sequence = "GLWSTIKQKGKE [DS 01 (1–12), reference compound]"
value = 0

[[record]]
monomer_sequence = "KLKKLLAGQKDGLLGQIAAMSDLYTKK [P94692(929–955)]"
value = 0


Now, please, on to the next sequence.
1/(log(MICs (mM)), Xanthomonas axonopodis pv. glycines) for GHRGALKDWVQAAGGAVAAFDFTTKG [Q8RW88(70–95)] is 0

====

This listing pairs sequences with measured % Helicity (Buffer) (Greenfield 69).
Test: Far UV circular dichroism of peptides in buffer (MRE, α-helix percentage)
Assay type: physicochemical
Conditions: buffer; from [q]208 nm, methodology of Greenfield et al. 1969
Protocol: Far UV CD spectra were acquired for peptides at 20 µM in buffer and in the presence of DMPC or 2∶1 DMPC:DMPG LUVs at 1 mol% peptide/phospholipids. Peptides presented different degrees of secondary structures upon LUVs addition. […] Experiments were conducted on a Jasco-J810 spectropolarimeter (Jasco International Co., Japan). Spectra were acquired at room temperature from 194 to 260 nm as an average of 4 readings using a 0.1 cm path length cell, data pitch of 0.2 nm and a response time of 0.5 s. […]
Give your result in % as a bare value.

Guide cases for % Helicity (Buffer) (Greenfield 69), answers given:
[[record]]
monomer_sequence = "KAGLQFPVGRIARFLK [B4FGE3(22–37), putative IAP; fragment of Histone H2A, Zea mays]"
observable = "% Helicity (Buffer) (Greenfield 69)"
value = 4.2

[[record]]
monomer_sequence = "GLWQIFSSKEEGKDNSQQKSKGDQAKEL [gb|ACU24018.1|(73–101), putative IAP; fragment of Unknown protein, Glycine max]"
observable = "% Helicity (Buffer) (Greenfield 69)"
value = 12.4


Now, please, on to the next sequence.
% Helicity (Buffer) (Greenfield 69) for FKALRALRLEDLRIPTSYIK [A3KLW0(117–136), putative IAP; fragment of Rubisco large chain, Anisophyllea pomifera] is 25.7
